Taken from the METLIN SMRT retention time set (Domingo-Almenara et al. 2019).

- EXPERIMENT_NOTES: gradient 5% acetonitrile 3 min, to 50% in 2 min, to 85% in 15 min, held 3 min, 100 µL/min
- CONDITION_NOTES: column: Zorbax Extend-C18 2.1 x 50 mm; eluents: water / acetonitrile, 0.1% formic acid
ENDPOINT_LABEL: RP-LC retention time (s)
Give bare numbers, in s.

Illustrative cases are given below, each with its answer.
COMPOUND | RP-LC retention time [s]
CC1CCN(S(=O)(=O)c2ccc3nn(Cc4ccc(F)cc4)c(=O)n3c2)CC1 | 1020
COc1cccc(S(=O)(=O)N2CCC(OCCOCc3ccccc3)CC2)c1 | 678
COC(=O)c1cnc2nc(C)ccc2c1Nc1ccc2c(c1)OCCO2 | 652

Dear reader, for each entry below, please note its RP-LC retention time.
1. O=C(NCc1cc(F)cc(F)c1)C1CCc2nc(N3CCCCC3)ncc2C1 (stereo not given)
2. CC1CCN(C(=O)c2cn(-c3cc(N4CCOCC4)ncn3)cn2)CC1
3. CCn1cc(-c2nc(C(=O)Nc3ccc(C)cc3F)cs2)c2cccnc21
4. O=C(NCc1ccc(N2CCCCC2)nc1)C1CCCCC1
5. Cc1ccc(-c2nc3n(CC(=O)NC(C)C)c4c(c(=O)n3n2)CCC4)cc1
6. CC(C)c1ccc(S(=O)(=O)N2C[C@@H](F)C[C@H]2C(=O)N2CCc3ccccc3C2)cc1
7. O=C(NCc1ccc(F)cc1)N1CCC(Nc2cccnc2)C1 (stereo not given)
8. CC(C)(C)OC(=O)COc1cc(O)c2c(=O)cc(-c3ccccc3)oc2c1

[778, 729, 983, 616, 733, 1060, 591, 1210]

Dear reader, for each entry below, please note its RP-LC retention time.
1. Cc1cc(N(C)C)n2nc(-c3ccc(C(C)(C)C)cc3)nc2n1
2. CS(=O)(=O)NCC1CCC(C(=O)Nc2ccc3c(c2)Cc2ccccc2-3)CC1 (stereo not given)
3. Cc1ccc(C(=O)N2CC=C(C(=O)NC3CC3)CC2)cc1
4. Cc1ccc(-c2nc(Nc3ccccc3Cl)sc2CC(=O)O)cc1
5. Cc1ccc(CN2CCC(n3c(C)cnc3-c3cccnc3)C2)s1 (stereo not given)
6. Cc1ccsc1CN1CCCC(c2nc(-c3cccnc3)n[nH]2)C1 (stereo not given)
7. Cc1cccn2cc(C(=O)NCCC3=CCCCC3)nc12

1: 927; 2: 840; 3: 847; 4: 1040; 5: 546; 6: 561; 7: 860
